# TESTED ON: human TLR7 (Homo sapiens)
# ASSAY PROTOCOL: TLR7 inhibition reporter assay (HEK-Blue cells, SEAP reporter)
# CONDITION PARAMETERS: HEK-Blue cells overexpressing human TLR7; stimulated with gardiquimod 7.5 μM; 22 hour incubation; SEAP readout
READOUT KIND: IC50 (µM)

INSERT INTO assay_data (compound, readout_value) VALUES
  ('CC(C)N1C2CCC1CC(N1CCC(c3cc(F)c4nc(-c5ccc(S(C)(=O)=O)cc5)cn4c3)CC1)C2 (single isomer, unassigned) [Example 68]', 8.2),
  ('COc1ccc(-c2cn3c(n2)CCC(C2CCN(C4CC5(C4)CN(C4CCC4)C5)CC2)C3)cc1OC (single isomer, unassigned) [Example 49]', 1.8),
  ('COc1ccc(-c2cn3c(n2)CC[C@H](C2CCN(C4CC5CCC(C4)N5C(C)C)CC2)C3)cc1OC (single isomer, unassigned) [Example 135]', 3.9);

* * *

# TESTED ON: human TLR8 (Homo sapiens)
# Sequence (Q9NR97 27-1041): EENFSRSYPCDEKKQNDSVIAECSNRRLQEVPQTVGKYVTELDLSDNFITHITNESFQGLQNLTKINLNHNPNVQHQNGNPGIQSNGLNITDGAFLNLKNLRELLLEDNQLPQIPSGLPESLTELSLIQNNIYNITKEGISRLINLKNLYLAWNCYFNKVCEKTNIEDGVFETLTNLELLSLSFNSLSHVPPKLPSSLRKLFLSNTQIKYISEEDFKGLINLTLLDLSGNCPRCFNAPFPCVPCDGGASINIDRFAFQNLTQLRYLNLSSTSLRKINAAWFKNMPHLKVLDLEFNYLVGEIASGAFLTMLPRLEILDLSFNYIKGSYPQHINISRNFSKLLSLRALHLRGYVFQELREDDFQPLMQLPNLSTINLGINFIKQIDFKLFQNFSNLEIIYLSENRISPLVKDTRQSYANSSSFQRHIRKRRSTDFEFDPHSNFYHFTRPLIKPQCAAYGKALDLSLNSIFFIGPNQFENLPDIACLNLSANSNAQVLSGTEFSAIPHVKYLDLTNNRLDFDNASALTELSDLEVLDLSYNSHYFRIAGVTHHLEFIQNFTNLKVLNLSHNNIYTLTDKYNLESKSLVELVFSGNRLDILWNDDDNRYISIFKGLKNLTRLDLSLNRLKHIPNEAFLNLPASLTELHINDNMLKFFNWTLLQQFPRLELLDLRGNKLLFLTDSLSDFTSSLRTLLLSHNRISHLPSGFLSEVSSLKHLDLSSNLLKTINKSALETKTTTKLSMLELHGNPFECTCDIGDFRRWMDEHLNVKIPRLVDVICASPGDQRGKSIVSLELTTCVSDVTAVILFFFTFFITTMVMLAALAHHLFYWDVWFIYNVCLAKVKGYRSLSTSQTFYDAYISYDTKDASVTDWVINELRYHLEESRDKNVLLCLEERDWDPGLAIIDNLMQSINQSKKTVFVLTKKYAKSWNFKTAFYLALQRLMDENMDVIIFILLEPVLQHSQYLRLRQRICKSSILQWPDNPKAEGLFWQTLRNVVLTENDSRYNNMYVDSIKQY
# ASSAY PROTOCOL: TLR8 inhibition reporter assay (HEK-Blue cells, SEAP reporter)
# CONDITION PARAMETERS: HEK-Blue cells overexpressing human TLR8; stimulated with R848 15.9 μM; 22 hour incubation; SEAP readout
pIC50: −log10 of the molar value.
READOUT KIND: pIC50

INSERT INTO assay_data (molecule, readout_value) VALUES
  ('CS(=O)(=O)c1ccc(-c2cn3cc(C4CCN(C5CC6CCC(C5)N6C5COC5)CC4)cc(F)c3n2)cc1 (single isomer, unassigned) [Example 119]', '< 4.30'),
  ('CS(=O)(=O)c1ccc(-c2cn3cc(C4CCN(C5CC6CCC(C5)N6C5CCOCC5)CC4)cc(F)c3n2)cc1 (single isomer, unassigned) [Example 122]', 4.57),
  ('CS(=O)(=O)c1ccc(-c2cn3ccc(C4CCN(C5CCN(C6CCOCC6)CC5)CC4)c(F)c3n2)cc1', '< 4.30'),
  ('CS(=O)(=O)c1ccc(-c2cn3cc(C4CCN(C5CC6CCC(C5)N6C5CCOCC5)CC4)cc(F)c3n2)cc1 (single isomer, unassigned) [Example 121]', '< 4.30'),
  ('CS(=O)(=O)c1ccc(-c2cn3cc(C4CCN(C5CC6CCC(C5)N6C5CCC5)CC4)cc(F)c3n2)cc1 (single isomer, unassigned) [Example 118]', 4.77),
  ('COc1ccc(-c2cn3c(n2)CCC(C2CCN(C4CC5(C4)CN(C4CCC4)C5)CC2)C3)cc1OC (racemic) [Example 48]', '< 4.30'),
  ('COc1ccc(-c2cn3c(n2)CC(C2CCN(C4CCN(CC(C)C)CC4)CC2)CC3)cc1OC (racemic)', '< 4.30'),
  ('CC(C)CN1C2CCC1CC(N1CCC([C@H]3CCc4nc(-c5ccc(S(C)(=O)=O)cc5)cn4C3)CC1)C2 (single isomer, unassigned) [Example 80]', '< 4.30'),
  ('COc1ccc(-c2cn3cc(C4CCN(C5CC6CCC(C5)N6CC5CC5)CC4)cc(C)c3n2)cc1OC (single isomer, unassigned) [Example 21]', '< 4.30'),
  ('Cc1cc(-c2ccc(N3CCN(CC(C)C)CC3)cc2)cn2cc(-c3ccc(S(C)(=O)=O)cc3)nc12', '< 4.30'),
  ('COc1ccc(-c2cn3c(n2)CCC(C2CCN(C4CC5(C4)CN(CC(C)C)C5)CC2)C3)cc1OC (single isomer, unassigned) [Example 53]', '< 4.30'),
  ('CC(C)CN1C2CCC1CC(N1CCC([C@H]3CCc4nc(-c5ccc(S(C)(=O)=O)cc5)cn4C3)CC1)C2 (single isomer, unassigned) [Example 79]', 4.78);

* * *

# TESTED ON: human TLR9 (Homo sapiens, UniProt Q9NR96)
# Sequence (Q9NR96 26-1032): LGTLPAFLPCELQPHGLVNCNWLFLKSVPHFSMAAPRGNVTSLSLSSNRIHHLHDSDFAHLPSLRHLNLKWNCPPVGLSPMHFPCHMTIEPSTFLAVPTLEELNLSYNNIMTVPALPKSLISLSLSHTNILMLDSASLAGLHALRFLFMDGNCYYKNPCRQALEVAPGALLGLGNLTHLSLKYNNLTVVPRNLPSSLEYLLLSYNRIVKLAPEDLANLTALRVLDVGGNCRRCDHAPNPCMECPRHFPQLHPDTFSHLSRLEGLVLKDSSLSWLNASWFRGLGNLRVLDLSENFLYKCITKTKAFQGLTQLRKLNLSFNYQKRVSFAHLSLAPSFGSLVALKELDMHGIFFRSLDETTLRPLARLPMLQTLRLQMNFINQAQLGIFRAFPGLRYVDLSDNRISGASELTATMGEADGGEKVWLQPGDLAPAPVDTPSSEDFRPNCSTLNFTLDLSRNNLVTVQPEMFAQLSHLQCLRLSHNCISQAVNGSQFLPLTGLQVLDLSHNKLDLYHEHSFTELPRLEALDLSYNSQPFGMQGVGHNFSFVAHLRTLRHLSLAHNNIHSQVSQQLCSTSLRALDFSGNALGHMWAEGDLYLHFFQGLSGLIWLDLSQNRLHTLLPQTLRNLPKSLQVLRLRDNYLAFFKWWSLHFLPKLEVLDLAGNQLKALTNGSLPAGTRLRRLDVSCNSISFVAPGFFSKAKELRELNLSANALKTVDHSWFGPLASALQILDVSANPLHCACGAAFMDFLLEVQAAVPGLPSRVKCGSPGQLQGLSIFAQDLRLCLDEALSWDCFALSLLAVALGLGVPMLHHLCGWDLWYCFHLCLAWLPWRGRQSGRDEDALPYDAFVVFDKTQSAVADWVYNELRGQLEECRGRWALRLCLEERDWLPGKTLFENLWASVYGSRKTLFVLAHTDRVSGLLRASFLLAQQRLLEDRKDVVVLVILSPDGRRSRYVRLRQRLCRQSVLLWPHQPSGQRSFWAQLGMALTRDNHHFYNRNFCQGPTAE
# ASSAY PROTOCOL: TLR9 inhibition reporter assay (HEK-Blue cells, SEAP reporter)
# CONDITION PARAMETERS: HEK-Blue cells overexpressing human TLR9; stimulated with ODN2006 5 nM; 22 hour incubation; SEAP readout
pIC50: −log10 of the molar value.
READOUT KIND: pIC50

INSERT INTO assay_data (compound, readout_value) VALUES
  ('COc1ccc(-c2cn3cc(C4CC5CCC(C4)N5C4CCN(CC(C)C)CC4)cc(C)c3n2)cc1OC (single isomer, unassigned) [Example 29]', 8.00),
  ('COc1ccc(-c2cn3cc(-c4ccc(N5CCN(C(C)C)CC5)cc4)cc(C)c3n2)cc1OC', 6.63),
  ('COc1ccc(-c2cn3c(n2)CC(C2CCN(C4CCN(C(C)C)CC4)CC2)CC3)cc1OC (racemic)', 7.22),
  ('COc1ccc(-c2cn3c(n2)CC[C@H](C2CCN(C4CC5CCC(C4)N5CC(C)C)CC2)C3)cc1OC (single isomer, unassigned) [Example 76]', 7.28),
  ('COc1ccc(-c2cn3c(n2)CCC(C2CCN(C4CCN(CC(C)C)CC4)CC2)C3)cc1OC (racemic) [Example 31]', 7.59),
  ('COc1ccc(-c2cn3c(n2)CCC(C2CCN(C4CC5(C4)CN(CC(C)C)C5)CC2)C3)cc1OC (single isomer, unassigned) [Example 54]', 8.82),
  ('CS(=O)(=O)c1ccc(-c2cn3cc(C4CCN(C5CCCN(C6CCOCC6)CC5)CC4)cc(F)c3n2)cc1 (single isomer, unassigned) [Example 130]', 8.00),
  ('COc1ccc(-c2cn3cc(C4CCN(C5CC6(C5)CN(C5CCC5)C6)CC4)cc(C)c3n2)cc1OC', 7.17),
  ('COc1ccc(-c2cn3c(n2)CCC(C2CCN(C4CC5(C4)CN(CC4CC4)C5)CC2)C3)cc1OC (racemic)', 7.17),
  ('COc1ccc(-c2cn3c(n2)CC[C@H](C2CCN(C4CC5CCC(C4)N5CC(C)C)CC2)C3)cc1OC (single isomer, unassigned) [Example 75]', 7.47),
  ('Cc1cc(-c2ccc(N3CCN(CC4CCC4)CC3)cc2)cn2cc(-c3ccc(S(C)(=O)=O)cc3)nc12', 6.10),
  ('COc1ccc(-c2cn3c(n2)CC(C2CCN(C4CCN(CC(C)C)CC4)CC2)CC3)cc1OC (racemic)', 6.69),
  ('COc1ccc(-c2cn3cc(C4CC5CCC(C4)N5C4CCN(C5CC5)CC4)cc(C)c3n2)cc1OC (single isomer, unassigned) [Example 26]', 7.07);

* * *

# TESTED ON: human TLR7 (Homo sapiens, UniProt Q9NYK1)
# Sequence (Q9NYK1 27-1049): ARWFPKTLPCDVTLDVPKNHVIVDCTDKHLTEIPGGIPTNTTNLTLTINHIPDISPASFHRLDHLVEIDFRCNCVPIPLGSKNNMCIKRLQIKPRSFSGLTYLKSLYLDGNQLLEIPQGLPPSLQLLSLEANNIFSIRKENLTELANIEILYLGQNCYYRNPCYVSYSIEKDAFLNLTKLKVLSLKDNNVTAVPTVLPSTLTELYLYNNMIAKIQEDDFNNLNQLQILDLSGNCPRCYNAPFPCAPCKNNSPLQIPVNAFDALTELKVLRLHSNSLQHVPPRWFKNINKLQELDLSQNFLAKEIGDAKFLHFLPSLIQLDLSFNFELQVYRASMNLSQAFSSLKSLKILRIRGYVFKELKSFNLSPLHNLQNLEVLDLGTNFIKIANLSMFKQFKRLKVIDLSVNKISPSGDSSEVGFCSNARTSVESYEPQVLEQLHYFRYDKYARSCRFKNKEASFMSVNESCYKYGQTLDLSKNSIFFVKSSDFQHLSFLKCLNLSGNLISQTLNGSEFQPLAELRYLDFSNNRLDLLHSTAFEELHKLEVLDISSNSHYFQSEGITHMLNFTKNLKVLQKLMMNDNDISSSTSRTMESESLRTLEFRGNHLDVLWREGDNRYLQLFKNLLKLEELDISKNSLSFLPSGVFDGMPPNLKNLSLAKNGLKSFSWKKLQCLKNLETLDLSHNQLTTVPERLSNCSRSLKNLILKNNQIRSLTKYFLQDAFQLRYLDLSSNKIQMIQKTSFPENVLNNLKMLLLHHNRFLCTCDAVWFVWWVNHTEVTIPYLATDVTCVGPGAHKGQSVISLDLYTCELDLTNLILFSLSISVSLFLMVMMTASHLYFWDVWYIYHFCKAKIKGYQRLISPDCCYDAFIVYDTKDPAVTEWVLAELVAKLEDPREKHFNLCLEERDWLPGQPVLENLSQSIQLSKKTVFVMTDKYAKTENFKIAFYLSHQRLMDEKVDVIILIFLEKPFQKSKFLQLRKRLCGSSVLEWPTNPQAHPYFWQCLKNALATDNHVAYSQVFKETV
# ASSAY PROTOCOL: TLR7 inhibition reporter assay (HEK-Blue cells, SEAP reporter)
# CONDITION PARAMETERS: HEK-Blue cells overexpressing human TLR7; stimulated with gardiquimod 7.5 μM; 22 hour incubation; SEAP readout
# Source text: TLR7/8/9 Inhibition Reporter Assays HEK-Blue™-cells (Invivogen) overexpressing human TLR7, TLR8 or TLR9 receptors were used for screening inhibitors of these receptors using an inducible SEAP (secreted embryonic alkaline phosphatase) reporter gene under the control of the […] minimal promoter fused to five NF-κB and AP-1-binding sites. […]
pIC50: −log10 of the molar value.
READOUT KIND: pIC50

INSERT INTO results (compound, value_operator, readout_value) VALUES
  ('CS(=O)(=O)c1ccc(-c2cn3c(n2)CC[C@@H](C2CCN(C4CC5CCC(C4)N5CC4CC4)CC2)C3)cc1 (single isomer, unassigned) [Example 141]', '=', 4.80),
  ('CS(=O)(=O)c1ccc(-c2cn3cc(C4CCN(C5CCCN(CC6CC6)CC5)CC4)cc(F)c3n2)cc1 (single isomer, unassigned) [Example 128]', '=', 5.62),
  ('COc1ccc(-c2cn3cc(C4CCN(C5CC6CCC(C5)N6C(C)C)CC4)cc(C)c3n2)cc1OC (single isomer, unassigned) [Example 22]', '=', 5.92),
  ('COc1ccc(-c2cn3cc(C4C[C@H]5CC[C@@H](C4)N5C4CCN(CC(C)C)CC4)cc(C)c3n2)cc1OC (mixture of isomers) [Example 27]', '=', 5.85),
  ('COc1ccc(-c2cn3cc(C4CCN(C5CCN(C6CC6)CC5)CC4)ccc3n2)cc1OC [Example 10]', '=', 5.28),
  ('COc1ccc(-c2cn3cc(-c4ccc(N5CCN(CC(C)C)CC5)cc4)cc(C)c3n2)cc1OC [Example 94]', '<', 4.30),
  ('COc1ccc(-c2cn3c(n2)CCC(C2CCN(C4CCN(C(=O)C5CC5)CC4)CC2)C3)cc1OC (single isomer, unassigned) [Example 43]', '=', 4.35),
  ('CC(C)CN1CCC(N2CCC(c3ccc4nc(-c5ccc(S(C)(=O)=O)cc5)cn4c3F)CC2)CC1 [Example 131]', '=', 4.74),
  ('COc1ccc(-c2cn3cc(-c4ccc(N5CCN(C6CCOCC6)CC5)cc4)cc(C)c3n2)cc1OC [Example 97]', '<', 4.30),
  ('CC(C)N1CCCC(N2CCC(c3cc(F)c4nc(-c5ccc(S(C)(=O)=O)cc5)cn4c3)CC2)CC1 (single isomer, unassigned) [Example 71]', '=', 5.52),
  ('COc1ccc(-c2cn3c(n2)CCC(C2CCN(C4CCN(C(C)C)CC4)CC2)C3)cc1OC (single isomer, unassigned) [Example 35]', '=', 4.89),
  ('Cc1cc(C2CCN(C3CCN(C4CC4)CC3)CC2)cn2cc(-c3ccc(S(C)(=O)=O)cc3)nc12 [Example 7]', '=', 5.11),
  ('COc1ccc(-c2cn3cc(C4CCN(C5CCN(C(C)C)CC5)CC4)ccc3n2)cc1OC [Example 11]', '=', 5.25);

All figures here come from patent US12486267B2.
